Origin of values: the supplement of paper PMC5844555

Tested on: BRCA2
experiment notes: 3' UTR reporter interaction score (median-centred robust z-score of log2 firefly/Renilla activity); higher = less repression of the 3' UTR reporter
test context: HEK293T; 48 h
// 0 (no) strictly below 0.1 in 3' UTR reporter interaction score; 1 (yes) otherwise

Please check the record `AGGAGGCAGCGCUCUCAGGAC` and state if its 3' UTR reporter interaction score is at or above 0.1.
0 (no)

Identify whether the reported 3' UTR reporter interaction score of the following sequence is 0.1 or greater: `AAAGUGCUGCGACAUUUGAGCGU`
1 (yes)

Please check the record `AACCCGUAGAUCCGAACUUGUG` and state if its 3' UTR reporter interaction score is at or above 0.1.
1 (yes)

Hi team, for `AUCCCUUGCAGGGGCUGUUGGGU` , is the recorded 3' UTR reporter interaction score at or above 0.1?
0 (no)

Check this sequence for 3' UTR reporter interaction score at or above 0.1: `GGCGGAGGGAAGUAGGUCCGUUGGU`
1 (yes)

Hi team, for `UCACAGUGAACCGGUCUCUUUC` , is the recorded 3' UTR reporter interaction score at or above 0.1?
1 (yes)

# check: 3' UTR reporter interaction score of `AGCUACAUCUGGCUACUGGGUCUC` is greater than or equal to 0.1
0 (no)

Determine whether measured 3' UTR reporter interaction score meets or exceeds 0.1 for `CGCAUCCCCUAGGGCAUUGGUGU`
1 (yes)

Entry `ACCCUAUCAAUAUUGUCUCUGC` : is its 3' UTR reporter interaction score no less than 0.1?
0 (no)

Quick check, 3' UTR reporter interaction score >= 0.1? `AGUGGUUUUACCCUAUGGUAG`
0 (no)

Has `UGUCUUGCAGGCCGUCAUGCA` a recorded 3' UTR reporter interaction score greater than or equal to 0.1?
0 (no)

Test whether the sequence `GAGCCAGUUGGACAGGAGC` records 3' UTR reporter interaction score of 0.1 or higher.
0 (no)

Is 3' UTR reporter interaction score for `GGGCGCCUGUGAUCCCAAC` at or above 0.1?
0 (no)

hey, is 3' UTR reporter interaction score for this one >= 0.1? `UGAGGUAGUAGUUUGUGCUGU`
1 (yes)

Assess whether reported 3' UTR reporter interaction score for `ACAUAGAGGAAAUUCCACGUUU` sits at 0.1 or higher.
1 (yes)

hey, is 3' UTR reporter interaction score for this one >= 0.1? `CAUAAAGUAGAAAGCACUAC`
1 (yes)

# bool: 3' UTR reporter interaction score of `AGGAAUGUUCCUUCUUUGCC` >= 0.1
0 (no)

3' UTR reporter interaction score >= 0.1 for `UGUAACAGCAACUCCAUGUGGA` ?
1 (yes)

Quick check, 3' UTR reporter interaction score >= 0.1? `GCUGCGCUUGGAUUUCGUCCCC`
0 (no)

Has `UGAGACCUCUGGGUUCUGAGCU` a recorded 3' UTR reporter interaction score greater than or equal to 0.1?
0 (no)

Check if 3' UTR reporter interaction score >= 0.1 (inclusive). Item: `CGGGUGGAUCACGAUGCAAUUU`
1 (yes)

Is it the case that `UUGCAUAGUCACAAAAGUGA` has 3' UTR reporter interaction score reaching or exceeding 0.1?
0 (no)

Reported 3' UTR reporter interaction score at or above 0.1? `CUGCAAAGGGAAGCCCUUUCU`
0 (no)

Decide: is the reported value of 3' UTR reporter interaction score for `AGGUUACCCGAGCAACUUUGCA` equal to or greater than 0.1?
0 (no)

Evaluate `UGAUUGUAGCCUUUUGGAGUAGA` : 3' UTR reporter interaction score at minimum 0.1?
1 (yes)

Threshold query (3' UTR reporter interaction score >= 0.1) on `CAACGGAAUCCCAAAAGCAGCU`
0 (no)

Does the sequence `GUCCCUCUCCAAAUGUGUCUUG` have recorded 3' UTR reporter interaction score that is 0.1 or more?
1 (yes)

Is reported 3' UTR reporter interaction score greater than or equal to 0.1 here: `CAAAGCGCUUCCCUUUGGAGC`
0 (no)

Please check the record `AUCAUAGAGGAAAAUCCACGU` and state if its 3' UTR reporter interaction score is at or above 0.1.
1 (yes)

# bool: 3' UTR reporter interaction score of `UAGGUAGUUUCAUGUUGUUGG` >= 0.1
1 (yes)

# bool: 3' UTR reporter interaction score of `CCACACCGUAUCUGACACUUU` >= 0.1
0 (no)

Has `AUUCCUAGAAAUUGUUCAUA` a recorded 3' UTR reporter interaction score greater than or equal to 0.1?
0 (no)

Decide: is the reported value of 3' UTR reporter interaction score for `UGGUAGACUAUGGAACGUA` equal to or greater than 0.1?
0 (no)
